Test system: Saccharomyces cerevisiae
test_summary: protein stability index of tFT-peptide fusion (C-terminal peptide) (PSI (0-1 scale)); higher = more stable (slower turnover)
condition_context: genetic background: das1 deletion; temperature: 37 C
# protein stability index >= 0.6 gives Satisfied, anything below gives Not satisfied

WLFRASSFNWVI ... Satisfied
LWWTRVILYGYI ... Not satisfied

hey, is protein stability index for this one >= 0.6? "LFDVLFVFSFIF"
Not satisfied

hey, is protein stability index for this one >= 0.6? "SLEACYCFVVLV"
Not satisfied

hey, is protein stability index for this one >= 0.6? "LCVFRFFLFFFL"
Not satisfied

----------
Consider the following sequences and their measured protein stability index readings.
Test system: Saccharomyces cerevisiae
test_summary: protein stability index of tFT-peptide fusion (C-terminal peptide) (PSI (0-1 scale)); higher = more stable (slower turnover)
condition_context: genetic background: doa10 deletion; temperature: 30 C
Returns: the value as a bare number; no unit string appended.

GPFVRSALIFIF ... 0.304
PRFWFYLSYSVH ... 0.301

Switching to the query record.
# get_value(readout='protein stability index', item= "PLFLRPLSVPVL" )
0.305

----------
Consider the following sequences and their measured protein stability index readings.
Test system: Saccharomyces cerevisiae
test_summary: protein stability index of tFT-peptide fusion (C-terminal peptide) (PSI (0-1 scale)); higher = more stable (slower turnover)
condition_context: genetic background: das1 deletion; temperature: 30 C
Returns: the value as a bare number; no unit string appended.

Check out these entries, answers already filled in.
FRRRLGDRFKKD [MRX7 C-terminal 12 aa] ... 0.69
GFADLDNFMSSL [HAA1 C-terminal 12 aa] ... 0.686
EEFSSGDYSMDY [RIE1 C-terminal 12 aa] ... 0.702
FNNILTKEMQKI [CLD1 C-terminal 12 aa] ... 0.701
SWSGDNEAHRWT [NPT1 C-terminal 12 aa] ... 0.716
STLAGEWRLIIA [YBR284W C-terminal 12 aa] ... 0.498

Switching to the query record.
# get_value(readout='protein stability index', item= YGSAPSLDSLFL [YJL067W C-terminal 12 aa] )
0.725

----------
System: Saccharomyces cerevisiae
test_summary: protein stability index of tFT-peptide fusion in wild type (PSI (0-1 scale)); higher = more stable (slower turnover)
condition_context: genetic background: wild type
Consider the following sequences and their measured protein stability index readings.
Returns: the value as a bare number; no unit string appended.

PSLWASFWRVVG ... 0.103
VRGAVGGWRLVGP ... 0.664
VRGAVGGWRLVV ... 0.16
RSLRVLLPLYTR ... 0.547
AITLPWCPLLLR ... 0.153

# get_value(readout= protein stability index, system= Saccharomyces cerevisiae) for "LVVYLSCVACIND"
0.0204

----------
Tested on: Saccharomyces cerevisiae
test_summary: protein stability index of tFT-peptide fusion (C-terminal peptide) (PSI (0-1 scale)); higher = more stable (slower turnover)
condition_context: genetic background: wild type; temperature: 30 C
Consider the following sequences and their measured protein stability index readings.
Returns: the value as a bare number; no unit string appended.

Check out these entries, answers already filled in.
EEREGPVGKGGG ... 0.708
PPPPPPPPALSS ... 0.716
SGGAGGSCMRYV ... 0.704
GCGRGGIAGGPR ... 0.702
VCDGIIQGNGTI ... 0.705
THLASTESVVRP ... 0.69
DHVSTVEQKLFF ... 0.701
TVKSCGRTLFSW ... 0.687
PCHSPATRTLPC ... 0.682
RVQAVTNKVAAR ... 0.692

# get_value(readout='protein stability index', item= "PWDPDTPIPPRP" )
0.716

# get_value(readout='protein stability index', item= "GGVGRSWQEVGG" )
0.72

# get_value(readout='protein stability index', item= "ESIQAASANDSQ" )
0.688

----------
Test system: Saccharomyces cerevisiae
test_summary: protein stability index of tFT-peptide fusion (C-terminal peptide) (PSI (0-1 scale)); higher = more stable (slower turnover)
condition_context: genetic background: wild type; temperature: 30 C
Consider the following sequences and their measured protein stability index readings.
Returns: the value as a bare number; no unit string appended.

Check out these entries, answers already filled in.
AVGPAGSQATIC ... 0.706
PWRLFVTSGSPA ... 0.714
PPPAPFSPLPPP ... 0.718

Switching to the query record.
# get_value(readout='protein stability index', item= "KGDCGGRGCGRH" )
0.682

----------
Consider the following sequences and their measured protein stability index readings.
Test system: Saccharomyces cerevisiae
test_summary: protein stability index of tFT-peptide fusion (C-terminal peptide) (PSI (0-1 scale)); higher = more stable (slower turnover)
condition_context: genetic background: wild type; temperature: 30 C
Returns: the value as a bare number; no unit string appended.

Check out these entries, answers already filled in.
SLPALPPLGLFS ... 0.71
VFRSRTSSLFTP ... 0.679
GSVSGCVGVMRG ... 0.641
LLNCVCSYFAWC ... 0.637
CRSGSGGGIRGR ... 0.741
SPLASLRFWCFC ... 0.437
GVWSLVGRGGEG ... 0.621
LFFLRSSSRGLW ... 0.736
KEVDGRALVAEE ... 0.655
FGIRGMTSVGSP ... 0.675

# get_value(readout='protein stability index', item= "PPRSHKPPQMQT" )
0.663

# get_value(readout='protein stability index', item= "FSLHPGTYLVVL" )
0.591

# get_value(readout='protein stability index', item= "DCWAGGGLCGWG" )
0.719

# get_value(readout='protein stability index', item= "HRCLCGCLDSVV" )
0.726

# get_value(readout='protein stability index', item= "APAPAPARTPTR" )
0.683

# get_value(readout='protein stability index', item= "GRPFCLGVKMFL" )
0.673

----------
Tested on: Saccharomyces cerevisiae
test_summary: protein stability index of tFT-peptide fusion in deletion strain of DOA10 (PSI (0-1 scale)); higher = more stable (slower turnover)
observed_property: protein stability index
Returns: the value as a bare number; no unit string appended.

AITLPVCPLLLR ... 0.652
CLDSLPILLFFR ... 0.664
RSLRVLLPLYFE ... 0.64

# get_value(readout='protein stability index', item= "RVTRLRAIYFRI" )
0.314

# get_value(readout='protein stability index', item= "RSLRLLLPLYFR" )
0.656

# get_value(readout='protein stability index', item= "GLYMCLVGCWFR" )
0.406

# get_value(readout='protein stability index', item= "CLVSLPILLFFT" )
0.528

# get_value(readout='protein stability index', item= "RVTRQDAIYFRI" )
0.698

----------
Consider the following sequences and their measured protein stability index readings.
Tested on: Saccharomyces cerevisiae
test_summary: protein stability index of tFT-peptide fusion (C-terminal peptide) (PSI (0-1 scale)); higher = more stable (slower turnover)
condition_context: genetic background: wild type; temperature: 37 C
Returns: the value as a bare number; no unit string appended.

Check out these entries, answers already filled in.
CRRLCGWLFVCV ... 0.513
FFFFFLLFFLRV ... 0.313
RGWNGFWVVVVW ... 0.368

Switching to the query record.
# get_value(readout='protein stability index', item= "VCLLFRFCCWFW" )
0.414

----------
Consider the following sequences and their measured protein stability index readings.
Test system: Saccharomyces cerevisiae
test_summary: protein stability index of tFT-peptide fusion in deletion strain of DAS1 (PSI (0-1 scale)); higher = more stable (slower turnover)
Returns: the value as a bare number; no unit string appended.

Check out these entries, answers already filled in.
PLKRNHLIKLLN ... 0.622
LKILRQKMNHPN ... 0.688
PDKINHLIKLLN ... 0.578
LKILRQKMGHQN ... 0.672

# get_value(readout='protein stability index', item= "AAWRVGLWRGAS" )
0.72

# get_value(readout='protein stability index', item= "HRGAVGGWRLVG" )
0.665

# get_value(readout='protein stability index', item= "VRGAVGGWRLVGP" )
0.671

# get_value(readout='protein stability index', item= "ARWRVGLWRPAS" )
0.691

# get_value(readout='protein stability index', item= "RLIQPEPVQFLN" )
0.61

----------
Tested on: Saccharomyces cerevisiae
test_summary: protein stability index of tFT-peptide fusion (C-terminal peptide) (PSI (0-1 scale)); higher = more stable (slower turnover)
condition_context: genetic background: wild type; temperature: 30 C
Consider the following sequences and their measured protein stability index readings.
Returns: the value as a bare number; no unit string appended.

PRYAEFVGRFEV ... 0.651
QDFFYCLLVATS ... 0.317
TIDACFHSDWGC ... 0.782
SHVDRVVFWYLL ... 0.529

# get_value(readout= protein stability index, system= Saccharomyces cerevisiae) for "GLVVMFVIAGGG"
0.404

# get_value(readout= protein stability index, system= Saccharomyces cerevisiae) for "RRPLLSTPAPCS"
0.755

# get_value(readout= protein stability index, system= Saccharomyces cerevisiae) for "LPPLLLPTRPLS"
0.662

# get_value(readout= protein stability index, system= Saccharomyces cerevisiae) for "FAARASLSPLTR"
0.855

# get_value(readout= protein stability index, system= Saccharomyces cerevisiae) for "RGGVFGTCGVGG"
0.653

# get_value(readout= protein stability index, system= Saccharomyces cerevisiae) for "FWGGGRGLVGEV"
0.664

# get_value(readout= protein stability index, system= Saccharomyces cerevisiae) for "SPALPPPAPRLL"
0.719

# get_value(readout= protein stability index, system= Saccharomyces cerevisiae) for "FRLICSRQFFAG"
0.593

# get_value(readout= protein stability index, system= Saccharomyces cerevisiae) for "NPSNEKERRKKN"
0.704

# get_value(readout= protein stability index, system= Saccharomyces cerevisiae) for "PASYPPFIYLSI"
0.434

# get_value(readout= protein stability index, system= Saccharomyces cerevisiae) for "SVYLKLSECRSV"
0.688

# get_value(readout= protein stability index, system= Saccharomyces cerevisiae) for "TAATLVYKQNQK"
0.66
